// values below are reported inhibition in vivo at 20 mg/kg
# Test system: carrageenin-induced edema
# Run description: carrageenin-induced edema test in rats (anti-inflammatory)
# Format: in vivo
# Conditions used: Rattus norvegicus, po, 20 mg/kg p.o., read-out: % Decrease of the induced edema
Write down the numeric answer in % and omit the unit.

Answered cases to consult:
> print(dat)
                                   molecule                 outcome.measure  readout.unit  numeric.readout
1  CC(=O)c1c(C)[nH]c(-c2ccccc2)c1N.Cl [Example 1, hydrochloride]  inhibition in vivo at 20 mg/kg             %               39
2  COc1ccc(C(=O)c2c(C)[nH]c(-c3ccccc3)c2N)cc1 [Example 24]  inhibition in vivo at 20 mg/kg             %             20.6

Q. API: value(readout=inhibition in vivo at 20 mg/kg, system=carrageenin-induced edema) for record COc1ccc(-c2[nH]c(C)c(C(C)=O)c2N)cc1 [Example 14]
A. 35.1

Q. Param item: CC(=O)c1c(C)[nH]c(-c2ccc(Cl)cc2)c1N [Example 26]
A. 29.2

Q. Also CC(=O)c1c(C)[nH]c(-c2ccc(C)cc2)c1N [Example 13] , if possible.
A. 43.5

Q. Same lookup for CCC(=O)c1c(C)[nH]c(-c2ccccc2)c1N [Example 21] , please.
A. 25.3

Q. Likewise for CC(=O)c1c(C)[nH]c(-c2ccccc2)c1N=Cc1ccccc1 [Example 46] ?
A. 23.9

---

# Run description: acute toxicity (LD50), procedure of Lichtfield and Wilcoxon
# Conditions used: mouse, in vivo, po, mice
# LD50 values compiled below

Reference set (5 entries):
> print(dat)
                                   molecule        result
1     COC(=O)c1c(C(N)=O)[nH]c(-c2ccccc2)c1N    1000 mg/kg
2      CCOC(=O)c1c(C)[nH]c(-c2ccccc2)c1N.Cl  > 1000 mg/kg
3       CNC(=O)c1c(C)[nH]c(-c2ccccc2)c1N.Cl   ~1000 mg/kg
4       CC(=O)c1c(C)[nH]c(-c2ccccc2)c1N(C)C  > 1000 mg/kg
5  CC(=O)c1c(N=Cc2ccccc2)c(-c2ccccc2)n(C)c1C [Example 49a]  > 1000 mg/kg

Read the next record carefully.
Q. If you can, please state the reported LD50 value of `Cc1[nH]c(-c2ccccc2)c(N)c1C(=O)c1ccccc1` .
A. > 1000 mg/kg

---

Measured LD50 of individual entries
# Run description: acute toxicity (LD50), procedure of Lichtfield and Wilcoxon
# Conditions used: mouse, in vivo, po, mice

Consider the following illustrative entries.
> print(dat)
                                   molecule  outcome.measure        result
1   CCOC(=O)c1c(C)[nH]c(-c2ccc(C)cc2)c1N.Cl             LD50  > 1000 mg/kg
2       CC(=O)c1c(C)[nH]c(-c2ccc(Cl)cc2)c1N             LD50  > 1000 mg/kg
3       Cc1[nH]c(-c2ccccc2)c(N)c1C(=O)C(C)C             LD50  > 1000 mg/kg
4         CCOC(=O)c1c[nH]c(-c2ccccc2)c1N.Cl             LD50  > 1000 mg/kg
5  COc1ccc(C(=O)c2c(C)[nH]c(-c3ccccc3)c2N)cc1             LD50     500 mg/kg
6          CCC(=O)c1c(C)[nH]c(-c2ccccc2)c1N             LD50     500 mg/kg
7      CCCC(=O)c1c(C)[nH]c(-c2ccccc2)c1N.Cl             LD50     500 mg/kg
8          CC(=O)c1c(C)[nH]c(-c2ccccc2C)c1N             LD50  > 1000 mg/kg

Now for the molecule whose LD50 we want.
Q. Could you share which LD50 value was measured for `CC(=O)c1c(C)[nH]c(-c2ccc(F)cc2)c1N` ?
A. > 1000 mg/kg
